Biological target: CpdB_Ndom (Escherichia coli, UniProt P08331, D305N/I97V/M87I)
Construct: GST (N, cleaved yes); made in house; host or cells: E. coli BL21
Sequence (P08331 20-354 M87I/I97V/D305N): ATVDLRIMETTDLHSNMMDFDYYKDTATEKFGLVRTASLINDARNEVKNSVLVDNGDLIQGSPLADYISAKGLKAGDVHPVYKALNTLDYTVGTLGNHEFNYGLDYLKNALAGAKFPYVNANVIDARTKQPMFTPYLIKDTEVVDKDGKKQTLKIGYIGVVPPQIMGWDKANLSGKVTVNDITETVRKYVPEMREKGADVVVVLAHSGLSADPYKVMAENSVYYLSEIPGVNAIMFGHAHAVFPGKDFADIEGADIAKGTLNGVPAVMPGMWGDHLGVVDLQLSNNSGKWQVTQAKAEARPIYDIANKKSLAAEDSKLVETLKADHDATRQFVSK
Assay: biochemical
measured quantity: Ki
Units required after the number.

What Ki value was documented for this compound, Nc1ncnc2c1ncn2[C@@H]1O[C@H](CO)[C@@H](O)[C@H]1O [Adenosine, adenosine] ?
48 mM

###

Biological target: Tyr^544Ala-CpdB (Y544A-CpdB) (Escherichia coli, UniProt P08331, D305N/I514V/I97V/M87I/N471D/S472N/Y544A)
Construct: A structural model of mature CpdB (aa 20–647) was built; GST (N, cleaved yes)
Sequence (P08331 20-647 M87I/I97V/D305N/N471D/S472N/I514V/Y544A): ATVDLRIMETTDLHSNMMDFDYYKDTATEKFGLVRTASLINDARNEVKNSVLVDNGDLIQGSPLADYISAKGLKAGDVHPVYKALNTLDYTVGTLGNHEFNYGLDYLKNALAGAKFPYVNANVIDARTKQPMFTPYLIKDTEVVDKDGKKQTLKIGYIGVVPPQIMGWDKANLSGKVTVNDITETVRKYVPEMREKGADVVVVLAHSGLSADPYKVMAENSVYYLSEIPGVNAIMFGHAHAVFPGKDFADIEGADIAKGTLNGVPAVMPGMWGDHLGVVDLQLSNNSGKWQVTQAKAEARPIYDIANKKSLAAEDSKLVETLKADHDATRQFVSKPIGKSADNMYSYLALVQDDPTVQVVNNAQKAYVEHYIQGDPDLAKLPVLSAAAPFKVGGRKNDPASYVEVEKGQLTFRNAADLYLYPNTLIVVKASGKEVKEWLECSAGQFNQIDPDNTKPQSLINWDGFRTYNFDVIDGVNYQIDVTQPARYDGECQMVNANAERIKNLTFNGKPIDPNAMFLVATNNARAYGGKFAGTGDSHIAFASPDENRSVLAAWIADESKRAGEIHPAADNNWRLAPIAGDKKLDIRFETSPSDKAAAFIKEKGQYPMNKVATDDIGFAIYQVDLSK
Assay: biochemical
pIC50: −log10 of the molar value.
measured quantity: pIC50

What pIC50 value was documented for this compound, Nc1ncnc2c1ncn2[C@@H]1O[C@H](CO)[C@@H](O)[C@H]1O [Adenosine, adenosine] ?
~1.52
